Source of measurements: patent US10017509B2

IC50: recorded values
# assayed system: Vps34 (PIK3C3 lipid kinase) (Homo sapiens)
# Sequence (Q8NEB9 whole entry, species assumed): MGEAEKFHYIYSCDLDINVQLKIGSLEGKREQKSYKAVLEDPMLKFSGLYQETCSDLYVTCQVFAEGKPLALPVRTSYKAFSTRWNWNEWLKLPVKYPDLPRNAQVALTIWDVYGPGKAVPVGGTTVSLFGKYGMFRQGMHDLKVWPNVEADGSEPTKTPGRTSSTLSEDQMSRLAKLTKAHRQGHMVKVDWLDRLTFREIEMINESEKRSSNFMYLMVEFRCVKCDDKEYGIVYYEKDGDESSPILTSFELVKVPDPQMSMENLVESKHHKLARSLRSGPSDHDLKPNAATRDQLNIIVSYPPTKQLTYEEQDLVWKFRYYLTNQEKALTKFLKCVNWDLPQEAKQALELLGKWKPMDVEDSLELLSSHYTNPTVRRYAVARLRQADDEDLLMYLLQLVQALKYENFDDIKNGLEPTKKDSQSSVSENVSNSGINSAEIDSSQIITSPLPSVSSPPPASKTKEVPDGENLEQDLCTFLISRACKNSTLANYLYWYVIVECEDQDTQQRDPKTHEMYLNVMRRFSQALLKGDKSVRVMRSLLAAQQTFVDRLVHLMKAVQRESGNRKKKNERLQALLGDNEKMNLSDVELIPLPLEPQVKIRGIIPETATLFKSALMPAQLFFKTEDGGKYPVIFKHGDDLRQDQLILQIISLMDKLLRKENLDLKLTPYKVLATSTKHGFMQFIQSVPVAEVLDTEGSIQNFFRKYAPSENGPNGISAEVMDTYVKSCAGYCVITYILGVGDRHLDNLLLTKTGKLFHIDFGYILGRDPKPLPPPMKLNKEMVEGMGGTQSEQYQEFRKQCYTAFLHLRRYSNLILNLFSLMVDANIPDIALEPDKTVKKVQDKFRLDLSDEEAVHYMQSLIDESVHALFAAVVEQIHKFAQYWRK
# experimental protocol: Biochemical Vps34 lipid kinase assay (ADP-Glo)
# details: serial half-log dilution 10 μM to 0.3 nM; pIC50 = -log IC50 (M)
Just the number in M, nothing appended.

As a guide, the following entries are already answered.
| compound | IC50 (M) |
| --- | --- |
| C#CCN1CCNC(=O)CN2CCN(CC2)Cc2cccc(c2)Nc2nccc(n2)-c2ccc(nc2)C1 | 3.39e-07 |
| CC1CN2CCN1CC(=O)NCCCNc1ccc(cn1)-c1ccnc(n1)Nc1cccc(c1)C2 (single isomer, unassigned) [Compound 137] | 8.13e-08 |
| CC1CN2CCN1CC(=O)NCCCNc1ccc(cn1)-c1ccnc(n1)Nc1cccc(c1)C2 (single isomer, unassigned) [Compound 136] | 1.66e-08 |
| CN1CCCN(C)c2ccc(cn2)-c2ccnc(n2)Nc2ccc(C(N)=O)c(c2)CN2CCN(CC2)CC1=O | 2.88e-07 |
| O=C1CN2CCC(CC2)Cc2cccc(c2)Nc2nccc(n2)-c2ccc(nc2)NCCCN1 | 1.51e-07 |
| O=C1NCCCNc2ccc(cn2)-c2ccnc(n2)Nc2cccc(c2)CN2CCN(CC2)C1CO (stereo not drawn) | 3.31e-07 |

What value of IC50 has been recorded for this entry: CN1CCCNc2ccc(cn2)-c2ccnc(n2)Nc2cccc(c2)CN2CCN(CC1=O)C(=O)C2 3.55e-07

Also CN(C)CCOCC1CN2CCN1Cc1cccc(c1)Nc1nccc(n1)-c1ccc(nc1)N(C)CCCN(C)C(=O)C2 (stereo not drawn) ? 5.25e-07

Also CN1CCCNC(=O)CN2CCN(CC2=O)Cc2cccc(c2)Nc2nccc(n2)-c2ccc1nc2 ? 1.32e-07

Also COC(=O)C1CN2CCN1Cc1cccc(c1)Nc1nccc(n1)-c1ccc(nc1)N(C)CCCN(C)C(=O)C2 (stereo not drawn) ? 8.91e-07

Also CN1CCCCN(C)c2ccc(cn2)-c2ccnc(n2)Nc2cccc(c2)CN2CCN(CC2)CC1=O ? 1.62e-07

Also CN1CCN(C)c2ccc(cn2)-c2ccnc(n2)Nc2cccc(c2)CN2CCNC(CC1=O)C2 (stereo not drawn) ? 3.02e-07

Also NS(=O)(=O)N1CCNC(=O)CN2CCN(CC2)Cc2cccc(c2)Nc2nccc(n2)-c2ccc(nc2)C1 ? 6.46e-08

Also COCCN1CCNc2ccc(cn2)-c2ccnc(n2)Nc2cccc(c2)CN2CCN(CC2)CC1=O ? 3.89e-06

Also COCCN1CCNC(=O)CN2CCN(CC2)Cc2cccc(c2)Nc2nccc(n2)-c2ccc(nc2)C1 ? 3.02e-07

====

# assayed system: Vps34 (PIK3C3 lipid kinase) (Homo sapiens)
# experimental protocol: Biochemical Vps34 lipid kinase assay (ADP-Glo)
# details: 1 h, single dose 1 μM compound; residual activity compared to control (DMSO); read-out: VPS34_1microM_% of cntrl
remaining activity at 1 µM: recorded values
Just the number in %, nothing appended.

As a guide, the following entries are already answered.
| compound | remaining activity at 1 µM, % |
| --- | --- |
| COCC1CN2CCN1Cc1cccc(c1)Nc1nccc(n1)-c1ccc(nc1)N(C)CCCN(C)C(=O)C2 (centres unmarked) [Compound 97] | 24.6 |
| CN1CCCN(C)c2ccc(cc2)-c2ccnc(n2)Nc2cccc(c2)CN2CCN(CC1=O)C(C(=O)OCc1ccccc1)C2 (centres unmarked) [Compound 92] | 38.3 |
| CN1CCCN(C)c2ccc(cn2)-c2ccnc(n2)Nc2cccc(c2)CN2CCN(CC1=O)CC2CO (centres unmarked) [Compound 51] | 14.6 |

Now let's try a different one.
What value of remaining activity at 1 µM has been recorded for this entry: O=C1CN2CCN(CC2)Cc2cccc(c2)Nc2nccc(n2)-c2ccc(nc2)CN(CCOCC(F)(F)F)CCN1 [Compound 41] 30.8
